Reference for the values: patent US8962793B2

Percent Inhibition ErbB2 values for the compounds below.
TGT: erbB3-erbB2 heteromerization (Homo sapiens)
Construct: the ectodomains of erbB receptors were immobilized on the surface chip; erbB2: Dr. Che Law, Xcyte Therapeutics; erbB3: Dr. Mark A. Lemmon
Sequence (P04626 23-652 limits assumed, one chain of several): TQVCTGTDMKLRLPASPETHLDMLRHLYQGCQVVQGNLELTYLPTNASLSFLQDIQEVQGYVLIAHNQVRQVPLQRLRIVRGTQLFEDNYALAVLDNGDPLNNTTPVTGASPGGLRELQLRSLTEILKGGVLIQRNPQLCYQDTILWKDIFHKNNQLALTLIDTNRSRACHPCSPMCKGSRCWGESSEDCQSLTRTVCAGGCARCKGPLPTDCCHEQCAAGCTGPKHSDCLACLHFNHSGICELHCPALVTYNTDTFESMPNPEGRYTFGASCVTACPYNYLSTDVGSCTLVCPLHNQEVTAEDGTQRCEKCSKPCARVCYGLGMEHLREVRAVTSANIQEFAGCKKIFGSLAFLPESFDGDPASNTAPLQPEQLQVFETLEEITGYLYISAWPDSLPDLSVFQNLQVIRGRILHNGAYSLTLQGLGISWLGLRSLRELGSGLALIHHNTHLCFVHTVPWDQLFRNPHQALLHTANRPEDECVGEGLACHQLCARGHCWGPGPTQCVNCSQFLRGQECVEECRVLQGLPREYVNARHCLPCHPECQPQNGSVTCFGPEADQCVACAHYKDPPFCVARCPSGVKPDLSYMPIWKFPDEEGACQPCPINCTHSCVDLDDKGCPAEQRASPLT
PROCEDURE_TEXT: SPR inhibition of HRGβ1-induced binding of ErbB3 to immobilized ErbB2
CONDITION_LABEL: peptide 10 μm, ErbB3 300 nm, HRGβ1 5 μM
Bridge positions count the residues as written; N and C are the ends. Peptide text beside a SMILES is read from it.
Form entry: value (%) — number only.

• CC[C@H](C)[C@@H]1NC(=O)[C@H](Cc2ccc(O)cc2)NC(=O)[C@@H](NC(=O)[C@@H](N)Cc2ccccc2)CSSC[C@@H](C(=O)N[C@@H](Cc2ccc(O)cc2)C(N)=O)NC(=O)[C@H](CCC(N)=O)NC(=O)[C@H](CC(=O)O)NC(=O)[C@H](CCC(=O)O)NC(=O)[C@H](C(C)C)NC(=O)[C@H](CCC(=O)O)NC(=O)CNC1=O [CD4-G, reference compound] (H-FCYIGEVEDQCY-NH2; disulfide 2-11) = −1.2
• CC[C@H](C)[C@@H]1NC(=O)[C@@H]2CCCN2C(=O)[C@@H](NC(=O)[C@@H](N)Cc2ccc(O)cc2)CSSC[C@@H](C(=O)N[C@@H](Cc2ccc(O)cc2)C(N)=O)NC(=O)[C@H](CCC(=O)O)NC(=O)[C@H](CCC(=O)O)NC(=O)[C@H](CC(=O)O)NC(=O)[C@@H]2CCCN2C(=O)[C@H](Cc2ccccc2)NC(=O)[C@H](CCCCN)NC(=O)[C@H](Cc2c[nH]c3ccccc23)NC1=O [B2-S22-APE] (H-YCPIWKFPDEECY-NH2; disulfide 2-12) = 51.1
• CC[C@H](C)[C@@H]1NC(=O)[C@H](Cc2ccccc2)NC(=O)[C@@H](NC(=O)[C@@H](N)Cc2ccc(O)cc2)CSSC[C@@H](C(=O)N[C@@H](Cc2ccc(O)cc2)C(N)=O)NC(=O)[C@H](CC(=O)O)NC(=O)[C@@H]2CCCN2C(=O)[C@H](CC(=O)O)NC(=O)[C@H](C)NC(=O)[C@H](Cc2ccc(O)cc2)NC(=O)[C@H](CCCCN)NC(=O)[C@H](Cc2ccccc2)NC1=O [B4-S22-AFD] (H-YCFIFKYADPDCY-NH2; disulfide 2-12) = 54.2
• CC(C)C[C@@H]1NC(=O)[C@@H](NC(=O)[C@@H](N)Cc2ccc(O)cc2)CSSC[C@@H](C(=O)N[C@@H](Cc2ccc(O)cc2)C(N)=O)NC(=O)CNC(=O)[C@H](C)NC(=O)[C@H](CC(=O)O)NC(=O)[C@H](C)NC(=O)[C@H](Cc2ccc(O)cc2)NC(=O)[C@H](CCCCN)NC(=O)[C@H](Cc2c[nH]c3ccccc23)NC(=O)[C@H](C(C)C)NC1=O [B1-S22-ALG] (H-YCLVWKYADAGCY-NH2; disulfide 2-12) = 71.4
• CC[C@H](C)[C@@H]1NC(=O)[C@@H]2CCCN2C(=O)[C@@H](NC(=O)[C@@H](N)Cc2ccc(O)cc2)CSSC[C@@H](C(=O)N[C@@H](Cc2ccc(O)cc2)C(N)=O)NC(=O)[C@H](CCC(N)=O)NC(=O)[C@H](C(C)C)NC(=O)[C@H](CC(=O)O)NC(=O)[C@@H]2CCCN2C(=O)[C@H](Cc2ccc(O)cc2)NC(=O)[C@H](CCCCN)NC(=O)[C@H](Cc2ccc(O)cc2)NC1=O [B3-S22-APQ] (H-YCPIYKYPDVQCY-NH2; disulfide 2-12) = 58.1

# evaluate next
The recorded Percent Inhibition ErbB2 for C[C@@H]1NC(=O)CNC(=O)[C@H](CCC(=O)O)NC(=O)[C@H](CCC(=O)O)NC(=O)[C@H](CC(=O)O)NC(=O)[C@@H]2CCCN2C(=O)[C@H](Cc2ccccc2)NC(=O)[C@@H](NC(=O)[C@@H](N)Cc2ccc(O)cc2)CSSC[C@@H](C(=O)N[C@@H](Cc2ccc(O)cc2)C(N)=O)NC1=O [B2-S22-AFA, YCFPDEEGACY] (H-YCFPDEEGACY-NH2; disulfide 2-10) is 82.5
